These data points were gathered from PubChem BioAssay (NCATS).

- protocol_description: Cell Proliferation Assay against the TMD8 Cell Line (Caspase readout at 16 hrs) (AID 651712);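 for caspase activation: 0% = DMSO and 100% = 9.2 µM bortezomib caspase activation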
- run_conditions: TMD8 lymphoma cells, caspase activation luminescence; series mostly up to 46.1 µM
Records with an inconclusive call do not appear. Activity calls are given as the source filed them. Calls come from the whole dose curve; as a rule, active = well fitted activation curve with a large enough effect; inconclusive = small, poorly fitted or top-dose-only effect; inactive = flat fitted curve, though single readings scatter.
Outcomes: 1 (yes) = active, 0 (no) = inactive

{"molecule": "CC(=O)NCCC(=O)N[C@@H](CCC(N)=O)C(=O)N[C@@H](CO)C(=O)N[C@@H](CCC(N)=O)C(=O)N[C@@H](CCC(N)=O)C(=O)N[C@H](C(=O)N[C@@H](Cc1ccccc1)C(=O)N[C@]1(C)CCCCCCC=CCCC[C@@](C)(C(=O)N[C@@H](CCC(N)=O)C(=O)N[C@@H](CC(N)=O)C(N)=O)NC(=O)[C@H](CC(C)C)NC(=O)[C@H](CC(C)C)NC(=O)[C@@H](CCCNC(=N)N)NC(=O)[C@H](Cc2c[nH]c3ccccc23)NC(=O)[C@H](CC(C)C)NC(=O)[C@H](CC(N)=O)NC1=O)[C@H](C)O", "label": "0 (no)"}
{"molecule": "COc1cc2c(cc1OC)CC(=O)N(CCCN(C)C[C@H]1Cc3cc(OC)c(OC)cc31)CC2", "label": "0 (no)"}
{"molecule": "COc1cccc(OC)c1-c1cc(C(=O)NC2(C(=O)O)C3CC4CC(C3)CC2C4)nn1-c1ccnc2cc(Cl)ccc12 (centres undefined)", "label": "1 (yes)"}
{"molecule": "CNC(=O)c1cc(Oc2ccc(NC(=O)Nc3ccc(Cl)c(C(F)(F)F)c3)c(F)c2)ccn1", "label": "0 (no)"}
{"molecule": "CCC=CC[C@H]1C(=O)CC[C@@H]1CC(=O)OC", "label": "0 (no)"}
{"molecule": "O=C(O)c1ccc(O)c2ncc(N3CCOCC3)cc12", "label": "0 (no)"}
{"molecule": "NC(=O)c1ccc(N(C(N)=O)c2c(F)cccc2F)nc1-c1ccc(F)cc1F", "label": "0 (no)"}
{"molecule": "OCCn1cc(-c2ccc3c(c2)CCC3=NO)c(-c2ccncc2)n1", "label": "0 (no)"}
{"molecule": "Cn1cc(-c2ccc3nnc(Sc4ccc5ncccc5c4)n3n2)cn1", "label": "0 (no)"}
